Molecular target: T1, recombinant protein CDH6 (UniProt P55285 54-615)
T1 construct: also called CDH6 recombinant protein; CDH6 antigen
T1 sequence (looked up): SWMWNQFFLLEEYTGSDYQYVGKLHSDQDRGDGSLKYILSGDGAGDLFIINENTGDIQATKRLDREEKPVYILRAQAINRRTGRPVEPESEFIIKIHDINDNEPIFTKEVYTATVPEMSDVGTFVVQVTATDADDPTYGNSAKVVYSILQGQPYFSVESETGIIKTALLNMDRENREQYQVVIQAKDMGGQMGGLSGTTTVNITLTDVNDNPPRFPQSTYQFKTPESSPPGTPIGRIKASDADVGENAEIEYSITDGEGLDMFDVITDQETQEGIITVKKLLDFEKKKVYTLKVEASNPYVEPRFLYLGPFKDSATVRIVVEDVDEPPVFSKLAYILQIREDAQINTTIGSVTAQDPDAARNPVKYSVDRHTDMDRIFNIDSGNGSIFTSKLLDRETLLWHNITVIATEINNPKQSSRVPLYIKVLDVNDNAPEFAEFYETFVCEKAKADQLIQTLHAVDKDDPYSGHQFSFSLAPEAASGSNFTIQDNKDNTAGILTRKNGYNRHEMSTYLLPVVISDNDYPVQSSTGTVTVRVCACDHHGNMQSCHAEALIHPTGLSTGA
Test: ELISA, CDH6 coated; antibody 0.10 ng/mL
REPORTED_METRIC: OD450 (OD450)
Give just the number in OD450; leave the unit off.

Some entries whose results are on file:
# BINDER, OD450 [OD450]
measured = [
    ("CL069707 antibody (antibody, V domains shown, Mouse monoclonal antibody from hybridoma, purified from ascites with Protein A/G; also called #23; No. 23) VH: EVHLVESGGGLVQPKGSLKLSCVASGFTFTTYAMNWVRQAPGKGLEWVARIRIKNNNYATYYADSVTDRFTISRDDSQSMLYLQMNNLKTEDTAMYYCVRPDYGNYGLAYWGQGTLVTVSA VL: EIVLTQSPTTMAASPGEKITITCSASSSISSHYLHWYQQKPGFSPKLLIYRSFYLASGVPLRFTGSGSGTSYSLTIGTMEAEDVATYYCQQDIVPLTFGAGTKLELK", 0.069),
    ("CL069439 antibody (antibody, V domains shown, Mouse monoclonal antibody from hybridoma, purified from ascites with Protein A/G; also called #16; No. 16) VH: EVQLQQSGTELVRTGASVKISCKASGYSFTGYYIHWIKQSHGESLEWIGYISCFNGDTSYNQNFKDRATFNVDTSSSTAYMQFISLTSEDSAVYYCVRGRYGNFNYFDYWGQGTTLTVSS VL: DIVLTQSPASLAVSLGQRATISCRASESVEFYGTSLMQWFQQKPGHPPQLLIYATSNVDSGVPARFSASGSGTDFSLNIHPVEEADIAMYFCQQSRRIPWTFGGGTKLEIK", 0.106),
]

Given CL069463 antibody (antibody, V domains shown, Mouse monoclonal antibody from hybridoma, purified from ascites with Protein A/G; also called #13; No. 13) VH: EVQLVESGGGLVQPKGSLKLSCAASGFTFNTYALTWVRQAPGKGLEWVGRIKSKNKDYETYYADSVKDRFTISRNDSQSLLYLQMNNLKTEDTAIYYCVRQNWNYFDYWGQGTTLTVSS VL: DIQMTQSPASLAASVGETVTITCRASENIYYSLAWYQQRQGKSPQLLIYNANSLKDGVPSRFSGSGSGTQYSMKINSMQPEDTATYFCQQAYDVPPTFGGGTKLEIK , respond with its OD450. 0.073
